IA(β3) for assorted molecules
Biological target: human β3 adrenergic receptor (Homo sapiens)
Construct: Full length β3 AR clones (402 amino acids) containing the last 6 amino acids of hβ3-AR are prepared; expressed in transfected cells; host or cells: CHO (Chinese hamster ovary) cells
Sequence (P13945 whole entry): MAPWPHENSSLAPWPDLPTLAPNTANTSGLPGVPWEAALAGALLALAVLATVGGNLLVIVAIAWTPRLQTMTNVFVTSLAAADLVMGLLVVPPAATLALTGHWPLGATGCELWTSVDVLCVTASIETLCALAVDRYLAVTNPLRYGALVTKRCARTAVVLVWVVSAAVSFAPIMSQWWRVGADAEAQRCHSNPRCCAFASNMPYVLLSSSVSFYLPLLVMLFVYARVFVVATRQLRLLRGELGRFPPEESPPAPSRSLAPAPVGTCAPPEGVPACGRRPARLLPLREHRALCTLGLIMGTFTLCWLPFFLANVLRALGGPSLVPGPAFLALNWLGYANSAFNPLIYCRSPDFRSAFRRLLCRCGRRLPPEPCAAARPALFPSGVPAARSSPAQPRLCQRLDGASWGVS
Test: cAMP (SPA) response in CHO cells transfected with human β3 adrenergic receptor
Format: cell-based
Parameters: key: fraction of maximal isoproterenol (10^-5 M) response
Conditions: maximal response relative to maximal response of isoproterenol at 10^-5 M
# answer = number (no unit)

O=C1NC(=O)C(Cc2ccc(N3CCC(NCC(O)COc4cccc5[nH]c(=O)[nH]c45)CC3)cc2)N1 (centres unmarked) : 0.69
COc1ccc(S(=O)(=O)Nc2ccc(N3CCC(NC[C@H](O)c4ccccc4)CC3)cc2)cc1 : 0.73
CS(=O)(=O)Nc1cc(OC[C@@H](O)CNC2CCN(c3ccc(CC4SC(=O)NC4=O)cc3)CC2)ccc1O (some centres unmarked) : 1.1

Give its IA(β3) value. Item: `O=c1[nH]c2cccc(OC[C@@H](O)CNC3CCN(c4ccc(NS(=O)(=O)c5ccc(Cl)c(Cl)c5)cc4)CC3)c2[nH]1` 0.86

For `O=C(NCc1ccc(S(=O)(=O)Nc2ccc(N3CCC(NC[C@H](O)COc4cccc5[nH]c(=O)[nH]c45)CC3)cc2)s1)c1ccccc1` , what is its reported IA(β3)? 0.91

Requested field: IA(β3). Item: `CC(=O)Nc1ccc(S(=O)(=O)Nc2ccccc2N2CCC(NC[C@H](O)c3ccc(O)c(O)c3)CC2)cc1` 0.8
